test system: HT-22; assay: Cytotoxicity against mouse HT-22 cells assessed as reduction in cell viability at 30 uM incubated for 24 hrs by MTT assay; assay type: toxicity, cell-based; conditions: ht-22, 24 h
RECORDED METRIC: Activity

See these solved cases before continuing.
ITEM SMILES	RECORDED METRIC	VALUE MEASURED
C=C1CCC[C@@H]2[C@@](C)(CCC3=CC(=O)OC3)[C@H](C)C[C@H](O)[C@@]12C	Activity	Non-Toxic
C=C1CCC[C@@H]2[C@@](C)(CCC3=C[C@H](OCC)OC3=O)[C@H](C)C[C@H](O)[C@@]12C	Activity	Non-Toxic
C=C1CCC[C@@H]2[C@@](C)(CC/C(=C/CO)CO)[C@H](C)C[C@H](O)[C@@]12C	Activity	Non-Toxic
C[C@@H]1C[C@@H]2OC(=O)[C@@H]3CCC[C@H]([C@@]1(C)CCc1ccoc1)[C@@]23C	Activity	Non-Toxic

Please examine the following record next.
Exercise: What Activity value was documented for this molecule, C=C1CCC[C@@H]2[C@@](C)(CCC3=C[C@@H](OCC)OC3=O)[C@H](C)C[C@H](O)[C@@]12C ?
Key: Non-Toxic

# credit: ChEMBL document CHEMBL5325506
